Let's look at some compounds and their measured T1/2.
MEASURED ON: Muscarinic acetylcholine receptor M3 (Homo sapiens)
Sequence (P20309 whole entry, looked up): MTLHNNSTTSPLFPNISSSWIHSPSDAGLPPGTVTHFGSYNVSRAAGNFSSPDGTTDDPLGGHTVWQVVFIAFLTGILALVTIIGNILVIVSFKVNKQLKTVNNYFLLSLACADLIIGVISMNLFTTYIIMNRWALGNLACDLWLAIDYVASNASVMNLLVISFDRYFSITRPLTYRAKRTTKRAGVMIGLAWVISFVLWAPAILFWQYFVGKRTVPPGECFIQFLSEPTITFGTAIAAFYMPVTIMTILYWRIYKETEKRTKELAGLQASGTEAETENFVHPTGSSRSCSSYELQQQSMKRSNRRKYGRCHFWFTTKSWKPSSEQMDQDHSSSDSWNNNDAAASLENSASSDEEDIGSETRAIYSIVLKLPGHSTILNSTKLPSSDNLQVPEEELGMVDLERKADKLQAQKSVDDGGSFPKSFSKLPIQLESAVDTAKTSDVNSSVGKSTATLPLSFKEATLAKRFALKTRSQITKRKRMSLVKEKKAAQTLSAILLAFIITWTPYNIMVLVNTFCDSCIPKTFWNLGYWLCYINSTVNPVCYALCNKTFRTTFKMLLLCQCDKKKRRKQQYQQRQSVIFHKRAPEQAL
CONDITION: CHO
Quick note: give the figure in h, leave out the unit.

structure_notation=CC(C)(CCC(C(N)=O)(c1ccccc1)c1ccccc1)N1CC(OCc2cccc(O)c2)C1 display_unit=h reported_value=20.7
structure_notation=CC(C)(CCC(C(N)=O)(c1ccccc1)c1ccccc1)N1CC(Oc2ccccc2)C1 display_unit=h reported_value=8.02
structure_notation=NC(=O)C(CCCN1CC[C@H](Oc2ccccc2)C1)(c1ccccc1)c1ccccc1 display_unit=h reported_value=0.633
structure_notation=CC(C)(CCC(C(N)=O)(c1ccccc1)c1ccccc1)N1CC[C@H](Oc2ccc(O)cc2)C1 display_unit=h reported_value=3.82

Qu. Name the recorded T1/2 of the item CC(C)(CCC(C(N)=O)(c1ccccc1)c1ccccc1)N1CC[C@H](Oc2ccc(Cl)c(O)c2)C1 in your answer.
Ans. 13.4
